# Test system: UO-31 renal
# assayText: NCI-60 one-dose screen, 48 h (100 = growth as untreated, 0 = no growth, -100 = all killed)
# cond: 10 µM unless noted
# Method: Growth inhibition of the UO-31 human tumor cell line is measured as a screen for anti-cancer activity. Cells are grown in 96 well plates and exposed to the test compound for 48 hours. Compounds are tested at a single concentration, which is 10^-5 M for most compounds. The reported endpoint is percent growth (GI% or GIPRCNT), where numbers from 0 - 100% represent growth inhibition, and numbers from -100% - 0 represent cell death. For example, a value of 40 represents 60% growth inhibition. […]
Compounds without any hit were thinned out: in the full panel of roughly 83,000, 20% have a hit.
Reported growth maps to class as: b0 (below 40%), b1 (40% to below 80%), b2 (80% or more)

Prompt: # bin lookup: classify "O=C(CCCCCCN1CC(=O)N2[C@@H](C3CC3)c3[nH]c4ccccc4c3C[C@H]2C1=O)NO" by its growth
Response: b1

Prompt: Into which bin does this compound go? Nc1cc(C(=O)N/N=C\c2ccc(OC(F)F)c(OC3CCCC3)c2)nn1CC(O)c1ccccc1 (centres undefined)
Response: b1

Prompt: Note: place this compound into its band. Item: "CCCNNC(=O)c1ccc(-c2ccc(NC(=O)CCCCCCC(=O)N[C@H](C(=O)N3C[C@H](O)C[C@H]3C(=O)N[C@@H](C)c3ccc(-c4scnc4C)cc3)C(C)(C)C)cc2)cc1"
Response: b2

Prompt: Dear colleague, I would appreciate it if you could identify the bin for "O=C(CN1CCN(c2cc(=O)[nH]c3ccc(F)cc23)CC1)N(c1ccccc1)c1ccccc1" and reply at your convenience.
Response: b2

Prompt: Which band does OCC(Nc1ncnc2ccc(-c3cnc4cnccn34)cc12)c1ccccc1 (centres undefined) fall in?
Response: b0

***
Prompt: Quick check: band for "N#Cc1cnc2ccc(-c3cnc4n[nH]nc4c3)cc2c1N1CCc2cc(F)c(Cl)cc21"
Response: b0

Prompt: Exercise: read the entry "COC(=O)c1cccc(NC2=C(Cl)C(=O)c3nc(C)ccc3C2=O)c1" and state which class it falls under.
Response: b1

Prompt: Sort C/C(CC1(O)C(=O)Nc2ccccc21)=N\O (centres undefined) into one of the categories.
Response: b2

Prompt: Using the reported growth, which band applies to "CS(=O)(=O)c1nccc(-c2c(-c3cccc(OCc4ccc(Cl)c(C(F)(F)F)c4)c3)nc3sccn23)n1" ?
Response: b0

----------
# Tested on: 786-0 renal
# assayText: NCI-60 one-dose screen, 48 h
# cond: 10 µM unless noted
# Experimental: Cells are grown in 96 well plates and exposed to the test compound for 48 hours. Compounds are tested at a single concentration, which is 10^-5 M for most compounds. The reported endpoint is percent growth (GI% or GIPRCNT), where numbers from 0 - 100% represent growth inhibition, and numbers from -100% - 0 represent cell death. For example, a value of 40 represents 60% growth inhibition. A value of 0 means no net growth occurred over the course of the experiment. […]
The panel holds about 83,000 compounds, 20% with a hit somewhere; the sample as a whole holds those more often. Active and inactive are the calls of the source. Rule for the calls: active = growth percent below 10; inactive = the rest.
Outcome field: choose from Y (active), N (inactive)

Look over these answered cases.
Prompt: So what was the verdict on "O=C(/C=C/c1cccc(F)c1)c1cccc(OCCCOc2cccc(C(=O)/C=C/c3cccc(F)c3)c2)c1" in this test?
Response: N

Prompt: GET /call?item= "CN(C)CCNc1ccc2ncc(C#Cc3cncc(C(=O)Nc4ccc(CN5CCN(C)CC5)c(C(F)(F)F)c4)c3)n2n1" returns the recorded outcome of this test.
Response: Y

Prompt: Call for entry "O=C(Nc1cccc(C(F)(F)F)c1)N1CCN(c2cc(-c3cn(-c4ccccc4)nc3-c3cccc(O)c3)ccn2)CC1" :
Response: N

More entries:
Prompt: Write down the call the test reported for this compound. Item: "Cc1cc(=O)oc2cc(OCCCOc3ccc(/C=C/C(=O)Nc4ccc(Br)cc4)cc3)ccc12"
Response: N

Prompt: Call for entry CCCCCN1C(=O)/C(=c2\sc3n(c2=O)C2C(NN=3)N(CC)C(=O)N2CC)c2cccc(C)c21 (stereo not drawn) :
Response: N

Prompt: Fill in: this test's call for "CCC(=C(c1ccc(OCCN2CCCCCC2)cc1)c1ccc(OCCN2CCCCCC2)cc1)c1ccc(Cl)cc1" is ___
Response: Y

Prompt: Given "CS(=O)(=O)c1ccc(/C(=N/N=C(N)N)c2ccc(F)cc2)cc1" , state the outcome it received in this test.
Response: N

Prompt: Entry "C#C[C@]1(O)CC[C@H]2[C@@H]3CC=C4c5sc(N(C)c6ccccc6)nc5CC[C@]4(C)[C@H]3CC[C@@]21C" : call = ?
Response: N
